# test-protocol: protease stability score; higher = more stable; yeast display proteolysis, trypsin and chymotrypsin;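 note: relative to predicted unfolded state with 0 unfolded-like and 1 meaning tenfold more protease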
recorded-endpoint: protease stability score
Number only, no unit.

Value of measured protease stability score for the entry DEDEHDVRELIELVLQVERTGNWKIFERLADPNVRLNIDGQEFHGREEALKLREDLLHHWGVDNIEVTLEDVTFQGDKVNSHFTSQFNGREFELIVIIMKIDGKWFLHQIQVHER : 1.19

Value of measured protease stability score for the entry TESEKSAHEFLELFEKSIVTGDEDNLDKMADPNVQTIINGREFHGREEMVKAFREIWNIMGVKHIEIRLKQIDFQGEKISVDSRLHIDVNGKRIDHSMTIIFRKINGRWVLESINRD : 1.34

Value of measured protease stability score for the entry TEMEKRAEHWARLMVDRLKTGDEEVLRKMMDPNTRLEIDGREFIGREEILKSWEELGIKHIIFRHIDIEIVDGVVHVHLDLHVRIGEKDTKIELRVTNEKINGRWVIRSIHIHDI : 1.69

Value of measured protease stability score for the entry DETTELVHRLIELFLNSLHTGDEKTMVKLADPHARVEVRINGRKEEYHGMEHWSEHLIRRLEHLRIEIRIHDMQWFEGHAQVHTELIVRYDGKEMRTSVQVHLFIVNGRFKSSIVIIH : 1.05

Value of measured protease stability score for the entry TEEEKHLRELTDRVLHEEETGDWRTLKELADPNVRFDYRYGDYFFHSHGREDVVKHLRHVFQEMRIERVHVKDRKNYNGKVEIHTEIHGVYNGVRFRTEVTIKIVIIDGRIHSHIWEIN : 0.305

Value of measured protease stability score for the entry SEEEHEIRLAFKQVIETLITGDEHIMTQLLDPNVKIRQGDKILHGREEAHKWADEWLRRVDHFEDMKIHRHSVFNGRLELDSEQVVIQGDKTISIRSEIILTKINGRWQIEELRFD : 1.43

----------
# test-protocol: protease stability score; higher = more stable; yeast display proteolysis, trypsin and chymotrypsin;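 note: relative to predicted unfolded state with 0 unfolded-like and 1 meaning tenfold more protease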
Consider the following sequences; for each one, report its protease stability score.
Number only, no unit.

Value of measured protease stability score for the entry NELTEVIRYWIHLWLTQLFTGNEEIIRRLADPNARFEVNGREIHGMDEWVDILKRLGMRFHHFHVDTIEIIDGVIHVQSRFDIDINGRRVNEETYHVIEKINGRWTLRTMELR : 2.31

Value of measured protease stability score for the entry DEEEKLLEKMFKDLIRDLLTGDEESFHKLADPNMRLNQGDFQIHGWEDVQRVLRWRMHEMRIHHLHIHHLHFFDGKLHIDGESDIEFNGVRQNRRVEILIKKVDGKWELKEVIIR : 2.28

Value of measured protease stability score for the entry EEEEEELLELLKRLWHAKSTGDEETTEKMADPNARFIINGREVHGRHMLNHLVKHLREEIKHVHIHRVSVVNGKAKMDTEVNVELEYNGVTFIIRTRVEIDTVVIDGRFHSVSIEIR : 1.12

Value of measured protease stability score for the entry DHDDEMLEHFMNLWLHAVATGDEELLSNLLDPNVREIINGKTIHGREEFLKLYHELARRIDHIHIRVRWYDMQGEFLISKTEIEFRFNGVNLKFETKMIVLKINGKWILHSIRFE : 1.26

Value of measured protease stability score for the entry SEEHRDSKRAIDILVHSVRTGDEKSFESFLDPNVRIDVDGVELHGMEFATTIFREWRIHHVHIDRYRSQGDWIEVDTTMDVRYGDKTDTRKTELIILKVNGVWLLHSVIIR : 1.19

Value of measured protease stability score for the entry DETTEDDRRRYEEFLMAEITGDFHLVEKLHDPDVRFVLVIGDKIHIHHGREDVRKWIEHDFRKFKNARIELHDVKAYDGRVEIHGRVQVDGVRFDVHITIIIINGRVKEQRLNIR : 2.12

Value of measured protease stability score for the entry DEDEQELRDALERWIRAMYTGDEKTLRDLIDPNVLIDINGKIIHGRHKLSQHLREIRIHHFEMHIEDYRFQGDKVHMDVREKRHWVIGDKHIDESRSVTLIIVKFDGRWLMHRVIVH : 1.19

Value of measured protease stability score for the entry DEKQEFIERIAKELLDSWLTGDEEHLRNMMDPHVRTDVNGREFHGREETIKAMQILGVDHLEIKDYRVINGRIHANSRMWIGDKQIETHLILRVVNGRVKEIKIEIR : 1.97

Value of measured protease stability score for the entry SEEHRLMEEIARIFIHLFLTGDEELFKHLADPNTRTHIHYGDKHIDLHGREQTTKFWKEHLDRVDHVEIRINDIRSIGDKAHIDGVLIMLVNGREHTIHIEIIVVVINGKDTEFEFRLI : 0.966
